- target_system: Rvs167, P39743
- Sequence (P39743 419-482): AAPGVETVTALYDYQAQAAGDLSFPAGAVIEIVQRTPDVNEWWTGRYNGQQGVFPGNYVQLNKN
- protocol_summary: SPOT array
- test_conditions: median of control spots 2707
reported_metric: SPOT intensity
Returns: the value as a bare number; no unit string appended.

Challenge: Write down SPOT intensity measured for item HRRRRVFSIPSLKSI
Response given: 3

Challenge: Write down SPOT intensity measured for item KTKQQKPAIPQKKSF
Response given: 4

Challenge: Write down SPOT intensity measured for item ISNFVPPNLPMRRFK
Response given: 2140

Challenge: Write down SPOT intensity measured for item TKHKAPPPPPPTAET
Response given: 0

Challenge: Write down SPOT intensity measured for item NSVPIMPTLPPRPYI
Response given: 157

Challenge: Write down SPOT intensity measured for item RAPPPVPKKPSSRIA
Response given: 45

Challenge: Write down SPOT intensity measured for item DDEDVPPQLPTRTKS
Response given: 1260

Challenge: Write down SPOT intensity measured for item SRSKPLPLTPNSKYN
Response given: 1
